Measured values drawn from PubChem BioAssay (NCI) for this set.

Measured TGI values are reported for all entries that follow.
Test system: SK-MEL-5 melanoma
PROCEDURE TEXT: NCI tumour cell line growth inhibition, 48 h
Field format: number, assumed µM, no unit text.

Example results:
# query: TGI of entry Cc1c(Cl)cccc1NC(=O)CC1C(=O)Nc2ccccc2S1(=O)=O (stereo unspecified)
26.7

# input compound: `COc1ccc(Cl)cc1Nc1nc(C(F)(F)F)ccc1C(=O)N/N=C/c1cc(OC)c(OC)c(OC)c1` ; wanted: its TGI
4.57

Would you kindly look at the next entry?
Param item = `Cc1ccc(NC(=O)Cn2c(Br)nc3c2c(=O)n(C)c(=O)n3C)cc1` ; retrieve measured TGI.
5.57
